Record form. Attribute: inhibition at 10 µM. Fill in for each entry.
target under test: hNav1.1 (SCN1A) (Homo sapiens, UniProt P35498)
protocol: Use-dependent inhibition of the CNS Nav1.1 sodium channel
Format: cell-based
test context: use-dependent block, 25 Hz, pulse 20, read-out: Nav1.1 UDB 25 Hz 10 uM
The response must be a number in % with no trailing unit.

Task: Output measured inhibition at 10 µM for this item: Fc1cc(-c2ccc(OC(F)(F)F)cc2)cc2c(OCc3nnc(C4CC4)o3)noc12
Output: 53.1

Task: Specify reported inhibition at 10 µM for the compound shown: Fc1cc(-c2ccc(OC(F)(F)F)cc2)cc2c(OCc3ncccn3)noc12
Output: 5.9

###

target under test: hNaV1.2 (SCN2A) (Homo sapiens, UniProt Q99250)
Construct: expressed in transfected cells
Sequence (Q99250 whole entry): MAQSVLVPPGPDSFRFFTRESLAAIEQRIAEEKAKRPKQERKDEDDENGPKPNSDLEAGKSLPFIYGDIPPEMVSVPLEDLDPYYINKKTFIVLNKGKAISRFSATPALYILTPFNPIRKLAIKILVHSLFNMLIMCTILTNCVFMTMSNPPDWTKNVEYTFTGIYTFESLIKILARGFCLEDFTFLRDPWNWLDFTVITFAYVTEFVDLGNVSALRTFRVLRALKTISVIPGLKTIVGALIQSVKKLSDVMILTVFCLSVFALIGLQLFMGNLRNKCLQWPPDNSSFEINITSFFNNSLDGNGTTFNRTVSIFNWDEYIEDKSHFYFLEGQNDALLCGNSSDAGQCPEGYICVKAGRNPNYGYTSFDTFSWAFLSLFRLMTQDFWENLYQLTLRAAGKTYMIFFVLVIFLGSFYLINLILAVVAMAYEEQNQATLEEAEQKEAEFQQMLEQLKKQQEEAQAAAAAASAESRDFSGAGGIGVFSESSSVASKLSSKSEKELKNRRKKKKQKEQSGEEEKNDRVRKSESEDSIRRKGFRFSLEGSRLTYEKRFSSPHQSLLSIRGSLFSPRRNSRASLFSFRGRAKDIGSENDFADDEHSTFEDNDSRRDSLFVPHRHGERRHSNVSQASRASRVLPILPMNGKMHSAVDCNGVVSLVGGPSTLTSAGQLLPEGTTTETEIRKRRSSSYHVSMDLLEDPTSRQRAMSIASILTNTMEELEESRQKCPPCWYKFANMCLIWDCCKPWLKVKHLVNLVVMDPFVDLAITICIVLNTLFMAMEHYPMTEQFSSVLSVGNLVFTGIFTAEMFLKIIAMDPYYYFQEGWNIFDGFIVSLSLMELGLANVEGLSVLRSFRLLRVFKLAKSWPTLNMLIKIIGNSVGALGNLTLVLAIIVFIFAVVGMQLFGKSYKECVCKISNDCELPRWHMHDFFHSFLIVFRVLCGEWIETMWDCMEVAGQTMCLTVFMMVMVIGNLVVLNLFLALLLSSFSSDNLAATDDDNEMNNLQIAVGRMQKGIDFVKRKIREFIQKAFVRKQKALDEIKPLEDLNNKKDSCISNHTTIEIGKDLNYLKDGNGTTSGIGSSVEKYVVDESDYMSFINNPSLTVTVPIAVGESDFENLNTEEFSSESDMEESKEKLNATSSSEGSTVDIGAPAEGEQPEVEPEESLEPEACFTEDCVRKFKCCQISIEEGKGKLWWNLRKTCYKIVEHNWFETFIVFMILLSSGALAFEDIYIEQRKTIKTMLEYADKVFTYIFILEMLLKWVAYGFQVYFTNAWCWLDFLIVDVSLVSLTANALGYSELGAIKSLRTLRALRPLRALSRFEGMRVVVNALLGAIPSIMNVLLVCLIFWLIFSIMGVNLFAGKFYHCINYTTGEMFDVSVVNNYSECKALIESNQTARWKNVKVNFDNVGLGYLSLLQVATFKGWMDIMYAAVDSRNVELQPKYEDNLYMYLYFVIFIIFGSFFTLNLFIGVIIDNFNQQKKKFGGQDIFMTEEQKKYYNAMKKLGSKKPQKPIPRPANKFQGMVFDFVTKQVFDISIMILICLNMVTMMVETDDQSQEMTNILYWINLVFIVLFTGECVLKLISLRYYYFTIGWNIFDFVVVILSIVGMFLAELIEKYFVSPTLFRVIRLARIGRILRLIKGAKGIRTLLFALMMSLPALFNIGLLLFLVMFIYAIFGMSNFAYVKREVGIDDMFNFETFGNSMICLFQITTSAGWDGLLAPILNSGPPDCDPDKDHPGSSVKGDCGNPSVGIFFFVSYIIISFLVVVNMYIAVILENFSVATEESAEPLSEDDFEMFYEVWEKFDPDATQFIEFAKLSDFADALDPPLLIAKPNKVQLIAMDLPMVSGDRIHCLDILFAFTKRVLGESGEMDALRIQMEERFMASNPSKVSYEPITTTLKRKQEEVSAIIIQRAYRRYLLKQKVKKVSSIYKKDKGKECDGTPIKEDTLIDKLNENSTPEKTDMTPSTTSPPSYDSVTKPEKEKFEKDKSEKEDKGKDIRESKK
Sequence (Q07699 19-218 partner): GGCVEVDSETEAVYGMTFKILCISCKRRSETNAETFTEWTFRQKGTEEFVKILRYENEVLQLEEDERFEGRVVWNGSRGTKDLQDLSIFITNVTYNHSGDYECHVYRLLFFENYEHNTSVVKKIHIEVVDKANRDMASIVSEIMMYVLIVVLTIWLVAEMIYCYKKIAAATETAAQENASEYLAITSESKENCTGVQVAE
Sequence (O60939 30-215 partner): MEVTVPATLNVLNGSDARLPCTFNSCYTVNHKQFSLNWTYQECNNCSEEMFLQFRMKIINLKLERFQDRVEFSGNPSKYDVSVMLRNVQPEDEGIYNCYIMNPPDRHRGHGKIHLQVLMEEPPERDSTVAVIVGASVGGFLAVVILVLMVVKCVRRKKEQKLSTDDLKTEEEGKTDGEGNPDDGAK
protocol: Use-dependent inhibition of the CNS Nav1.2 sodium channel
Type: cell-based
test context: use-dependent block, 25 Hz, pulse 20, read-out: Nav1.2 UDB 25 Hz 10 uM
readout kind: inhibition at 10 µM (%)
Write the value in % as a bare number.

Task: Return reported inhibition at 10 µM. Input compound: COc1ccnc(CNc2noc3ccc(-c4ccc(OC(F)(F)F)cc4)cc23)n1
Output: 44.4

Task: Report inhibition at 10 µM for FC(F)(F)Oc1ccc(-c2ccc3onc(-n4cnc(-c5ccccc5)c4)c3c2)cc1
Output: 65

Task: Indicate the recorded inhibition at 10 µM value for this compound: O=C1OCCN1CCOc1noc2ccc(-c3ccc(OC(F)(F)F)cc3)cc12
Output: 27.1

Task: Return value of inhibition at 10 µM for input CC(=O)N1CCOC[C@H]1COc1noc2ccc(-c3ccc(OC(F)(F)F)cc3)cc12 , no commentary.
Output: 70.8

Task: State, in one line, measured inhibition at 10 µM of FC(F)(F)Oc1ccc(-c2ccc3onc(OCCn4cncn4)c3c2)cc1
Output: 14.5

Task: Give reported inhibition at 10 µM value for COc1cc2onc(OCc3ncccn3)c2cc1-c1ccc(Cl)c(F)c1
Output: 5.6

Task: Please supply the value of reported inhibition at 10 µM for the item Cc1cc(-c2ccc(OC(F)(F)F)cc2)cc2c(OCc3cn(C)nn3)noc12
Output: 87

###

target under test: wild-type human cardiac sodium channel, hNav1.5 (Homo sapiens, UniProt Q14524)
Sequence (Q14524 whole entry): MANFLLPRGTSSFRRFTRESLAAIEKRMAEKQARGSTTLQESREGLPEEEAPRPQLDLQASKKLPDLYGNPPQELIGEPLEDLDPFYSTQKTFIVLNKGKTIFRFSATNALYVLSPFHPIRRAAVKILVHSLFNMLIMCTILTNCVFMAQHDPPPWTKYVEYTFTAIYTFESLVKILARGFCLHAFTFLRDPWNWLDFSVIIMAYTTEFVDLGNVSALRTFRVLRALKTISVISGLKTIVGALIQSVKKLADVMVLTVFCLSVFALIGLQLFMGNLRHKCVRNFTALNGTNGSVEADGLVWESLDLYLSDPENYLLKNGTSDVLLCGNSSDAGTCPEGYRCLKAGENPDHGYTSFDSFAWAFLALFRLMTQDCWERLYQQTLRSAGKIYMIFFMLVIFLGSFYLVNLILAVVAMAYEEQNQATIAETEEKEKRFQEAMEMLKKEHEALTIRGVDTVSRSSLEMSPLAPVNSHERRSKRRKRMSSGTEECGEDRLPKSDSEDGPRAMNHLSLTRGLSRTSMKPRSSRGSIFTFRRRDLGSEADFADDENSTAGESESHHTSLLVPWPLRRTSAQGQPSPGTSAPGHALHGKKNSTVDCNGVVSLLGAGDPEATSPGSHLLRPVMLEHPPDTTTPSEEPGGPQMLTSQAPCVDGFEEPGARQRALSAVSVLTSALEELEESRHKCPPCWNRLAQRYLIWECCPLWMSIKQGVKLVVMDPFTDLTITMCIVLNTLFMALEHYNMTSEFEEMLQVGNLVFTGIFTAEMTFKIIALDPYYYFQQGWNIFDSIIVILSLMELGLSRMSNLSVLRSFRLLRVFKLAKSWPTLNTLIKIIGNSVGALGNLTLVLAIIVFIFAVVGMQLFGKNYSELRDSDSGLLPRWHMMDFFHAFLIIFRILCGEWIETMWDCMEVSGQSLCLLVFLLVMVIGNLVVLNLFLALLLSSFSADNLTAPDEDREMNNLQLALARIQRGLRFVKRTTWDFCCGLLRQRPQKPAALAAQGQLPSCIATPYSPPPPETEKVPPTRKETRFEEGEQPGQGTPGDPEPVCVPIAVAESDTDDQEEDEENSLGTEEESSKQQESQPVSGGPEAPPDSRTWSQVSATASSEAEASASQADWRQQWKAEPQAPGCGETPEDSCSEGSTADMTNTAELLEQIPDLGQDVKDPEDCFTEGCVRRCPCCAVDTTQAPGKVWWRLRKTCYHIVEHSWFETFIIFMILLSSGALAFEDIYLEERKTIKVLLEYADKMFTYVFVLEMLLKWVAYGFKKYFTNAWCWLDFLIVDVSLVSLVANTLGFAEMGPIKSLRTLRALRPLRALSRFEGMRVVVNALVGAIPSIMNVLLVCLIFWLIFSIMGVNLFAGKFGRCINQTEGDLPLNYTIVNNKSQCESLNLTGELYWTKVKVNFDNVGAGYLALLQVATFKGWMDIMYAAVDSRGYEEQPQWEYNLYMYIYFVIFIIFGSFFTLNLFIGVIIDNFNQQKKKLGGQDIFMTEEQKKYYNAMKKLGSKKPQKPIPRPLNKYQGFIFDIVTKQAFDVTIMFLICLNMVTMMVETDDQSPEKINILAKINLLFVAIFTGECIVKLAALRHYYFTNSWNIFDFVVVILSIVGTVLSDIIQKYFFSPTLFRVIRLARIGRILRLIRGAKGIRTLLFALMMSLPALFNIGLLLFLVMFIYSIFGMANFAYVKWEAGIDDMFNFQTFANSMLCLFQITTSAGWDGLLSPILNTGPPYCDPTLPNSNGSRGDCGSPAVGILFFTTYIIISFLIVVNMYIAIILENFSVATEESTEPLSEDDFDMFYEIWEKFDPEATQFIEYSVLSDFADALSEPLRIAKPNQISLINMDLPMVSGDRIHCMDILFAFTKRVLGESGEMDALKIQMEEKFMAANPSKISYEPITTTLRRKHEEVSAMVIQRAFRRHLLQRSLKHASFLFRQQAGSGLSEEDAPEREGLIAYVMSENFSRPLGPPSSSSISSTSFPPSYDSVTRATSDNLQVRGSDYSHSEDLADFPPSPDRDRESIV
protocol: Peak INa screening assay (tonic block and use-dependent block)
Assay type: cell-based
test context: use-dependent block of Peak INa, 3 Hz, pulse 50, read-out: Peak UDB 3 Hz 3 uM
Kindly supply the reported inhibition at 3 µM values for the records listed here.

Task: For the molecule COc1ccnc(COc2noc3ccc(-c4ccc(OC(F)(F)F)cc4)cc23)c1 [Example 81] , give its measured inhibition at 3 µM value.
Output: < 5%

Task: Identify the reported inhibition at 3 µM for the following entry. Cc1cnc(COc2noc3ccc(-c4ccc(OC(F)(F)F)cc4)cc23)cn1 [Example 73]
Output: < 5%

Task: State its inhibition at 3 µM: FC(F)(F)Oc1ccc(-c2ccc3onc(OCc4cn[nH]c4)c3c2)cc1 [Example 45]
Output: 15.1%

Task: Report inhibition at 3 µM for CCn1ccnc1COc1noc2ccc(-c3ccc(OC(F)(F)F)cc3)cc12 [Example 47]
Output: 8.5%

Task: Answer with reported inhibition at 3 µM of CC(COc1noc2ccc(-c3ccc(OC(F)(F)F)cc3)cc12)n1cncn1 (stereo not drawn) [Example 77]
Output: 8.3%

Task: Indicate its recorded inhibition at 3 µM; the molecule in question is FC(F)(F)Oc1ccc(-c2ccc3onc(-n4ccnc4)c3c2)cc1 [Example 132]
Output: 5.1%

Task: In one line, give reported inhibition at 3 µM of the entry Cc1cc(-c2ccc(OC(F)(F)F)cc2)cc2c(OCc3nnc(C4CC4)o3)noc12 [Example 105] .
Output: 27.8%

Task: Return inhibition at 3 µM for the following molecule: CC1(COc2noc3ccc(-c4ccc(OC(F)(F)F)cc4)cc23)COC1 [Example 92]
Output: < 5%

Task: Quick one: give measured inhibition at 3 µM for CC(COc1noc2ccc(-c3ccc(OC(F)(F)F)cc3)cc12)n1cccn1 (stereo not drawn) [Example 68]
Output: < 5%

Task: Given Cc1cc(-c2ccc(OC(F)(F)F)cc2)cc2c(OCc3ncco3)noc12 [Example 91] , respond with its inhibition at 3 µM.
Output: < 5%

Task: Using known records, supply inhibition at 3 µM for FC(F)(F)Oc1ccc(-c2ccc3onc(OCc4nnc(C5CC5)o4)c3c2)cc1 [Example 96]
Output: < 5%

Task: Specify measured inhibition at 3 µM for Cc1cc(-c2ccc3onc(OCc4ncccn4)c3c2)ccc1OC(F)(F)F [Example 7] .
Output: < 5%

Task: Using the record for FC(F)(F)Oc1ccc(-c2ccc3onc(OCC4CCO4)c3c2)cc1 (stereo not drawn) [Example 42] , state its measured inhibition at 3 µM.
Output: < 5%

Task: Input Cc1cc(-c2ccc(OC(F)(F)F)cc2)cc2c(OCc3cn(C)nn3)noc12 [Example 87] , output reported inhibition at 3 µM.
Output: 39%

Task: Determine from records and report inhibition at 3 µM for Nc1noc2ccc(-c3ccc(OC(F)(F)F)cc3)cc12 [Example 147]
Output: 3%

Task: Output measured inhibition at 3 µM for this item: COc1ccnc(COc2noc3ccc(-c4ccc(OC(F)(F)F)cc4)cc23)n1 [Example 67]
Output: < 5%

Task: Could you please provide reported inhibition at 3 µM for Cn1cc(COc2noc3ccc(-c4ccc(OC(F)(F)F)cc4)cc23)nn1 [Example 44] ? Thanks!
Output: 10.4%

Task: Let me know recorded inhibition at 3 µM for O=C1CCCN1CCOc1noc2ccc(-c3ccc(OC(F)(F)F)cc3)cc12 [Example 59] , thanks.
Output: < 5%

Task: Give a short answer stating reported inhibition at 3 µM for O=C1OCCN1CCOc1noc2ccc(-c3ccc(OC(F)(F)F)cc3)cc12 [Example 75] .
Output: < 5%

Task: Hello, please tell me recorded inhibition at 3 µM for this one: Cc1cc(OC(F)(F)F)ccc1-c1ccc2onc(OCc3ncccn3)c2c1 [Example 3]
Output: 11.8%

Task: Given Cc1nc(C)n(C(C)COc2noc3ccc(-c4ccc(OC(F)(F)F)cc4)cc23)n1 (stereo not drawn) [Example 79] , respond with its inhibition at 3 µM.
Output: < 5%

Task: Supply reported inhibition at 3 µM belonging to this molecule: FC(F)(F)c1ccc(-c2ccc3onc(OCc4ncccn4)c3c2)cc1 [Example 9]
Output: 10.3%

Task: Return the recorded inhibition at 3 µM value; entry: OCC1(COc2noc3ccc(-c4ccc(OC(F)(F)F)cc4)cc23)COC1 [Example 97]
Output: < 5%

Task: Specify inhibition at 3 µM for FC(F)(F)Oc1ccc(-c2ccc3onc(NCc4ncco4)c3c2)cc1 [Example 156] and stop.
Output: < 5%

Task: Quick one: give measured inhibition at 3 µM for Fc1cccnc1COc1noc2ccc(-c3ccc(OC(F)(F)F)cc3)cc12 [Example 94]
Output: < 5%

Task: Return inhibition at 3 µM for the following molecule: Cc1ncn(-c2noc3ccc(-c4ccc(OC(F)(F)F)cc4)cc23)n1 [Example 141]
Output: < 5%

Task: Answer with the recorded inhibition at 3 µM of Fc1cc(-c2ccc(OC(F)(F)F)cc2)cc2c(OCc3ncccn3)noc12 [Example 17] only.
Output: < 5%

Task: Note down inhibition at 3 µM recorded for Cc1cc(-c2cc(C)c3onc(OCc4ncccn4)c3c2)ccc1OC(F)(F)F [Example 18]
Output: 5.2%

Task: // fetch inhibition at 3 µM given entry FC(F)(F)Oc1ccc(-c2ccc3onc(-n4cnc(C(F)(F)F)c4)c3c2)cc1 [Example 145]
Output: < 5%

Task: Hello, please tell me recorded inhibition at 3 µM for this one: FC(F)(F)Oc1ccc(-c2ccc3onc(Oc4ncccn4)c3c2)cc1 [Example 124]
Output: < 5%

Task: Give reported inhibition at 3 µM value for CC(C)NC(=O)COc1noc2ccc(-c3ccc(OC(F)(F)F)cc3)cc12 [Example 122]
Output: < 5%

Task: Could you please provide reported inhibition at 3 µM for O=C(COc1noc2ccc(-c3ccc(OC(F)(F)F)cc3)cc12)N1CCCC1 [Example 121] ? Thanks!
Output: 23.4%

Task: Respond only with inhibition at 3 µM recorded for Cc1cccc(COc2noc3ccc(-c4ccc(OC(F)(F)F)cc4)cc23)n1 [Example 95]
Output: < 5%

Task: Give the reported inhibition at 3 µM for this molecule. Cc1nnc(COc2noc3ccc(-c4ccc(OC(F)(F)F)cc4)cc23)s1 [Example 101]
Output: < 5%

Task: Please look at this molecule and report its inhibition at 3 µM: CC(C)(C)OC(=O)COc1noc2ccc(-c3ccc(OC(F)(F)F)cc3)cc12 [Example 157]
Output: < 5%

Task: Supply reported inhibition at 3 µM belonging to this molecule: COc1cc(-c2ccc(OC(F)(F)F)cc2)cc2c(OCc3ncccn3)noc12 [Example 22]
Output: < 5%

###

target under test: wild-type human cardiac sodium channel, hNav1.5 (Homo sapiens)
protocol: Late INa screening assay (QPatch whole cell patch clamp, Tefluthrin-induced late current)
Type: cell-based
test context: 1 uM; HEK293 hNav1.5; percent block of late INa
readout kind: inhibition at 1 µM (%)
Please reply with the bare figure in % and do not write the unit itself.

Task: Print wild-type human cardiac sodium channel, hNav1.5 (Homo sapiens) inhibition at 1 µM for Cc1cc(C)n(CCOc2noc3ccc(-c4ccc(OC(F)(F)F)cc4)cc23)n1 .
Output: 29.6

Task: Lab note: wild-type human cardiac sodium channel, hNav1.5 (Homo sapiens) assay, enter inhibition at 1 µM for CC1(COc2noc3ccc(-c4ccc(OC(F)(F)F)cc4)cc23)COC1 here
Output: 36.3

Task: Check wild-type human cardiac sodium channel, hNav1.5 (Homo sapiens) data and give inhibition at 1 µM for Cc1nc(C)n(C(C)COc2noc3ccc(-c4ccc(OC(F)(F)F)cc4)cc23)n1 (stereo not shown) .
Output: 46.1

Task: Print wild-type human cardiac sodium channel, hNav1.5 (Homo sapiens) inhibition at 1 µM for CC(C)[C@@H](COc1noc2ccc(-c3ccc(OC(F)(F)F)cc3)cc12)N1CCCC1=O .
Output: 58.2

Task: Enter recorded inhibition at 1 µM with wild-type human cardiac sodium channel, hNav1.5 (Homo sapiens) for Cc1cc(-c2ccc(OC(F)(F)F)cc2)cc2c(OCCn3cncn3)noc12 here.
Output: 33.2

Task: Specify inhibition at 1 µM for FC(F)(F)Oc1ccc(-c2ccc3onc(OCc4nnc(C5CC5)s4)c3c2)cc1 , system wild-type human cardiac sodium channel, hNav1.5 (Homo sapiens).
Output: 39.2

Task: Provide inhibition at 1 µM, tested on wild-type human cardiac sodium channel, hNav1.5 (Homo sapiens), for Cc1cccc(COc2noc3c(C)cc(-c4ccc(OC(F)(F)F)cc4)cc23)n1 .
Output: 28.3

Task: Give reported inhibition at 1 µM for Cc1cc(-c2ccc(OC(F)(F)F)cc2)cc2c(OCc3ncccn3)noc12 (wild-type human cardiac sodium channel, hNav1.5 (Homo sapiens))
Output: 54.2

Task: Please tell me the measured inhibition at 1 µM for CN(C)c1noc2ccc(-c3ccc(OC(F)(F)F)cc3)cc12 ; system: wild-type human cardiac sodium channel, hNav1.5 (Homo sapiens).
Output: 45.8

Task: Report the value of inhibition at 1 µM obtained on wild-type human cardiac sodium channel, hNav1.5 (Homo sapiens) for FC(F)(F)Oc1ccc(-c2ccc3onc(-n4ccnc4)c3c2)cc1 .
Output: 40.5
